# target-system: Recombinant STAT3 protein (STAT3 (G127-I722)) (Homo sapiens)
# Construct: Recombinant STAT3 protein (STAT3 (G127-I722))
# protocol-description: STAT3 Fluorescence Polarization (FP) Assay
# Type: binding
# condition-set: STAT3 (G127-I722) 25 nM, probe 5-FAM-GpYLPQTV-NH2 2 nM, 45-minute incubation; read-out: STAT3 (FP assay IC50 class)
pIC50: −log10 of the molar value.
Listing of entries alongside the reported pIC50.

Please review the entries below; each comes with its answer.
O=C(N[C@H]1CCCC[C@H]2CC[C@@H](C(=O)N3CC(c4ccccc4)CC34CC4)N2C1=O)c1cnc2ccc(CP(=O)(O)O)cc2c1 (stereo partly drawn); 5.00 to 6.00
O=C(N[C@H]1CCC[C@H]2CC[C@@H](C(=O)N3CC(c4cc(F)ccn4)C3)N2C1=O)c1cc2cc(CP(=O)(O)O)ccc2s1; 5.00 to 6.00
O=C(N[C@H]1CCC[C@H]2CC[C@@H](C(=O)N3CC4(C3)OCc3ccncc34)N2C1=O)c1cc2cc(C(F)P(=O)(O)O)ccc2s1 (stereo partly drawn); 6.00 to 7.00
Cc1ccncc1C1CN(C(=O)[C@@H]2CC[C@@H]3CCCC[C@H](NC(=O)c4cc5cc(CP(=O)(O)O)ccc5s4)C(=O)N32)C1; 6.00 to 7.00
Cn1ccc([C@@H]2CN(C(=O)[C@@H]3CC[C@@H]4CCC[C@H](NC(=O)c5cc6cc([C@@H](F)P(=O)(O)O)ccc6s5)C(=O)N43)C3(CC3)C2)cc1=O; 5.00 to 6.00

Consider the compound "O=C(N[C@H]1CCC[C@H]2CC[C@@H](C(=O)NCc3ccc4[nH]c(=O)[nH]c4c3)N2C1=O)c1cc2cc(C(F)(F)P(=O)(O)O)ccc2s1" and give its measured pIC50.
6.00 to 7.00

----------
# target-system: pY641-STAT6 in PBMC (Homo sapiens, UniProt P42226)
# Construct: Cryopreserved Peripheral Blood Mononuclear Cells (PBMC) are from AllCells; host or cells: cryopreserved PBMC
# Sequence (P42226 whole entry): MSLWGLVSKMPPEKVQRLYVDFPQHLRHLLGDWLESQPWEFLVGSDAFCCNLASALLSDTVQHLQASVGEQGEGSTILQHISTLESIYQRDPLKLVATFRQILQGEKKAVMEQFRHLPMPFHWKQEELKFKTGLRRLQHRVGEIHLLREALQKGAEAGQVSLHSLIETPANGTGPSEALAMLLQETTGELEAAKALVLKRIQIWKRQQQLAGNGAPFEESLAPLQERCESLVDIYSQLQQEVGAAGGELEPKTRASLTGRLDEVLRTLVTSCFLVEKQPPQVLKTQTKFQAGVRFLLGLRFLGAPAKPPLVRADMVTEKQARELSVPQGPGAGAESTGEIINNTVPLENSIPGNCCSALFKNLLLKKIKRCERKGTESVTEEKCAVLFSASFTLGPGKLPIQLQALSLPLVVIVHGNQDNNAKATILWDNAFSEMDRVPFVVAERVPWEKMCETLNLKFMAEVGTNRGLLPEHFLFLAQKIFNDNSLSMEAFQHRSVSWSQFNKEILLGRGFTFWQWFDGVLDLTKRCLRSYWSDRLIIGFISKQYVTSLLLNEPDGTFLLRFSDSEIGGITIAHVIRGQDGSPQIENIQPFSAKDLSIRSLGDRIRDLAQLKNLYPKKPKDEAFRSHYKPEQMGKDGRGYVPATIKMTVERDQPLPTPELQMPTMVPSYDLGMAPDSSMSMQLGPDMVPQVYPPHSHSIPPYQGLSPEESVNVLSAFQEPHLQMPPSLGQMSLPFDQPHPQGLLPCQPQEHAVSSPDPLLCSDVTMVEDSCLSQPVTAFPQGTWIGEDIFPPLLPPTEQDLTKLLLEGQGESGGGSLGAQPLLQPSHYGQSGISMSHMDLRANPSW
# protocol-description: MSD-pSTAT-PBMC Assay (pSTAT6, IL-4 stimulated)
# Format: cell-based
# condition-set: STAT6, PBMC, compound 3 hrs, then 1 ng/mL IL-4 for 10 min; Table 115
recorded-endpoint: IC50

CC(C)OC(=O)[C@H](C)NP(=O)(Cc1ccc2ccc(C(=O)N[C@H]3CCCC[C@H]4CC[C@@H](C(=O)N5C[C@H](c6cc[nH]c(=O)c6)CC56CC6)N4C3=O)cc2c1)Oc1ccccc1 (some centres unmarked) [Compound 423]; 100 to 1000 nM

What does the record list as IC50 for CCCOC(=O)[C@H](C)NP(=O)(Oc1ccccc1)[C@@H](F)c1ccc2sc(C(=O)N[C@H]3CCCC[C@H]4CC[C@@H](C(=O)N5C[C@H](c6cccc(F)c6)C(C#N)C56CC6)N4C3=O)cc2c1 (relative stereo) [Compound 337] ?
< 100 nM

----------
compounds and their reported pIC50
# target-system: Recombinant STAT6 protein (STAT6 (W123-T658)) (Homo sapiens, UniProt P42226)
# Construct: Recombinant STAT6 protein (STAT6 (W123-T658))
# Sequence (P42226 123-658): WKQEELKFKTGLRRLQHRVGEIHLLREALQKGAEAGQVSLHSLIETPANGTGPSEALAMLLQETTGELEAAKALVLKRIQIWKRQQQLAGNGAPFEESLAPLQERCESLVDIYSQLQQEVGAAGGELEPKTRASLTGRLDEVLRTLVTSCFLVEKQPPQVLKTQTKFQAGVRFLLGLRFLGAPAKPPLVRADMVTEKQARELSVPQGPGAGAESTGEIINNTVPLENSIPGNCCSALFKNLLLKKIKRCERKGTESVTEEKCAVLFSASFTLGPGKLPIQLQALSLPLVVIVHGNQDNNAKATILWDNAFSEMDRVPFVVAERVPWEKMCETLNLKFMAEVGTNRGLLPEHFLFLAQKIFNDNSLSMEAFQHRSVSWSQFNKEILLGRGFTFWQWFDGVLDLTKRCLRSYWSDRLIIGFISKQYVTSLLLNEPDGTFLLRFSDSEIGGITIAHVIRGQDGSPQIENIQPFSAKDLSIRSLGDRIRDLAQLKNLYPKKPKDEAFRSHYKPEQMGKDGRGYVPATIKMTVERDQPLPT
# protocol-description: STAT6 Fluorescence Polarization (FP) Assay
# Assay type: binding
# condition-set: STAT6 (W123-T658) 250 nM, probe 5-FAM-ApYKPFQDLI-NH2 2 nM, 45-minute incubation; read-out: STAT6 (FP assay IC50 class)
pIC50: −log10 of the molar value.

N#C[C@@H]1CN(C(=O)[C@@H]2CC[C@@H]3CCCC[C@H](NC(=O)c4cc5cc(C(F)(F)P(=O)(O)O)ccc5s4)C(=O)N32)C[C@H]1c1cccc(=O)[nH]1 (relative stereo); ≥ 6.52
N#CC1C(c2ccccc2)CN(C(=O)[C@@H]2CC[C@@H]3CCC[C@H](NC(=O)c4cc5cc([C@@H](F)P(=O)(O)O)ccc5s4)C(=O)N32)C12CC2 (stereo in doubt); ≥ 6.52
N#CC1CN(C(=O)[C@@H]2C[C@@H](O)[C@H]3C/C=C\C[C@H](NC(=O)c4cc5cc(C(F)(F)P(=O)(O)O)ccc5s4)C(=O)N32)CC1c1ccccc1 (relative stereo); 5.52 to 6.52
Cn1ccc([C@@H]2CN(C(=O)[C@@H]3CC[C@@H]4CCCC[C@H](NC(=O)c5cc6cc(C(F)P(=O)(O)O)ccc6s5)C(=O)N43)C[C@H]2C#N)cc1=O (single isomer, unassigned); 5.52 to 6.52
N#C[C@@H]1CN(C(=O)[C@@H]2CC[C@@H]3CCCC[C@H](NC(=O)c4cc5cc(C(F)P(=O)(O)O)ccc5s4)C(=O)N32)C[C@H]1c1ccccc1 (single isomer, unassigned); ≥ 6.52
COc1cncc([C@@H]2CN(C(=O)[C@@H]3CC[C@@H]4CCC[C@H](NC(=O)c5cc6cc([C@H](F)P(=O)(O)O)ccc6s5)C(=O)N43)C3(CC3)[C@H]2C#N)c1 (single isomer, unassigned); 5.52 to 6.52

Can you share its pIC50? I mean this compound: "O=C(N[C@H]1CCC[C@H]2CC[C@@H](C(=O)N3CC(c4cccnc4)C3)N2C1=O)c1cc2cc([C@@H](F)P(=O)(O)O)ccc2s1"
4.52 to 5.52

Any idea what its pIC50 is? The compound is N#C[C@@H]1[C@@H](c2cncc(Cl)c2)CN(C(=O)[C@@H]2CC[C@@H]3CCC[C@H](NC(=O)c4cc5cc([C@H](F)P(=O)(O)O)ccc5s4)C(=O)N32)C12CC2 (single isomer, unassigned)
5.52 to 6.52

Data request, read-out pIC50, for O=C(N[C@H]1CCCC[C@H]2CC[C@@H](C(=O)N3CC(c4cccnc4)CC34CC4)N2C1=O)c1cc2cc([C@@H](F)P(=O)(O)O)ccc2s1 (stereo in doubt)
≥ 6.52

----------
# target-system: Recombinant STAT3 protein (STAT3 (G127-I722)) (Homo sapiens, UniProt P40763)
# Construct: Recombinant STAT3 protein (STAT3 (G127-I722))
# Sequence (P40763 127-722): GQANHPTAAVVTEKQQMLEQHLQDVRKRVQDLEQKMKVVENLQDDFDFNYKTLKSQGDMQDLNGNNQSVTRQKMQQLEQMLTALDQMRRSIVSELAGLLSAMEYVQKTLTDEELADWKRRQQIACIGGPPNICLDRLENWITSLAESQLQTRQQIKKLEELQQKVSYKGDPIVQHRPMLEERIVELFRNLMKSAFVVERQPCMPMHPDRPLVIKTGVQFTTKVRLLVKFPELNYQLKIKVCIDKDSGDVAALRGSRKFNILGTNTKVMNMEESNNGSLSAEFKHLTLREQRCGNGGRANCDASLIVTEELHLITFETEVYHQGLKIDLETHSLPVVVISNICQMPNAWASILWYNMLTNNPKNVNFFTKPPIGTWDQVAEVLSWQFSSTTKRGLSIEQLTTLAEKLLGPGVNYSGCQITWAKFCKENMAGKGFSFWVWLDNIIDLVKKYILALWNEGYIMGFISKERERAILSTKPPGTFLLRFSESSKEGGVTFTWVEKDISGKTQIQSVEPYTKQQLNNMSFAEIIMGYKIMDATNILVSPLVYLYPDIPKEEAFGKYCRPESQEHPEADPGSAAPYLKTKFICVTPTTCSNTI
# protocol-description: STAT3 Fluorescence Polarization (FP) Assay
# Format: binding
# condition-set: STAT3 (G127-I722) 25 nM, probe 5-FAM-GpYLPQTV-NH2 2 nM, 45-minute incubation; read-out: STAT3 (FP assay IC50 class)
recorded-endpoint: IC50

Some solved entries appear below for comparison.
CC1(C)C[C@@H](c2ccccc2)CN1C(=O)[C@@H]1CC[C@@H]2CCCC[C@H](NC(=O)c3cc4cc(C(F)(F)P(=O)(O)O)ccc4s3)C(=O)N21; 1000 to 10000 nM
CCc1ccncc1C1CN(C(=O)[C@@H]2CC[C@@H]3CCC[C@H](NC(=O)c4cc5cc(CP(=O)(O)O)ccc5s4)C(=O)N32)C1; 100 to 1000 nM
COc1cccc([C@@H]2CN(C(=O)[C@@H]3CC[C@@H]4CCCC[C@H](NC(=O)c5cc6cc(C(F)P(=O)(O)O)ccc6s5)C(=O)N43)C3(CC3)[C@H]2C#N)c1 (relative stereo); 1000 to 10000 nM

// query IC50 value for entry CCOc1cc(C2CN(C(=O)[C@@H]3CC[C@@H]4CCC[C@H](NC(=O)c5cc6cc([C@@H](F)P(=O)(O)O)ccc6s5)C(=O)N43)C2)ccn1 (single isomer, unassigned)
100 to 1000 nM

Which measured IC50 value corresponds to "C[C@@H]1C[C@H]2CC[C@@H](C(=O)N3CC(c4cnccc4N(C)C)C3)N2C(=O)[C@@H](NC(=O)c2cc3cc([C@H](F)P(=O)(O)O)ccc3s2)C1" ?
< 100 nM

----------
Quick reference for IC50 among some compounds
# target-system: Recombinant STAT3 protein (STAT3 (G127-I722)) (Homo sapiens)
# Construct: Recombinant STAT3 protein (STAT3 (G127-I722))
# protocol-description: STAT3 Fluorescence Polarization (FP) Assay
# Type: binding
# condition-set: STAT3 (G127-I722) 25 nM, probe 5-FAM-GpYLPQTV-NH2 2 nM, 45-minute incubation; read-out: STAT3 (FP assay IC50 class)

For orientation, consider the following solved cases.
O=C(N[C@H]1CCCC[C@H]2CC[C@@H](C(=O)N3CC(c4cncc(-c5ccccc5)c4)C3)N2C1=O)c1cc2cc(C(F)(F)P(=O)(O)O)ccc2s1 [Compound 518]; 100 to 1000 nM
C[C@H]1C[C@H]2CC[C@@H](C(=O)N3C[C@@H](c4cccnc4)CC34CC4)N2C(=O)[C@@H](NC(=O)c2cc3cc([C@H](F)P(=O)(O)O)ccc3s2)C1 [Compound 834]; 100 to 1000 nM
O=C(N[C@H]1CCC[C@H]2CC[C@@H](C(=O)N3CCC(c4ncncc4F)CC3)N2C1=O)c1cc2cc(C(F)P(=O)(O)O)ccc2s1 (stereo partly drawn) [Compound 582]; 1000 to 10000 nM
O=C(N[C@H]1CCC[C@H]2CC[C@@H](C(=O)N3CC(c4cnccc4O)C3)N2C1=O)c1cc2cc(C(F)P(=O)(O)O)ccc2s1 (stereo partly drawn) [Compound 540]; < 100 nM
Cc1cc(=O)[nH]cc1C1CN(C(=O)[C@@H]2CC[C@@H]3CCC[C@H](NC(=O)c4cc5cc(CP(=O)(O)O)ccc5s4)C(=O)N32)C1 [Compound 646]; 1000 to 10000 nM

Now look at this one.
Any idea what IC50 was measured for O=C(N[C@H]1CCC[C@H]2CC[C@@H](C(=O)N3CC(c4cnccc4N4CC[C@H](F)C4)C3)N2C1=O)c1cc2cc(CP(=O)(O)O)ccc2s1 [Compound 666] ?
< 100 nM

Cited source: patent US20250215029A1
